Test system: HEK-293T
Experiment: Multiplex assay against HEK293T
Assay type: toxicity, cell-based
Details: human, 48 h, 10 µM, compound concentration 10 uM, replicate 2
Value Type: Population Membrane Permeable-Phenotype (%)

Compound: CC(C)[C@H](CO)Nc1nc(Nc2cccc(Cl)c2)c2ncn(C(C)C)c2n1
Reported Measurement: 2

Compound: CN1CCN(Cc2ccc(-c3cnc4[nH]cc(-c5ccc6[nH]ccc6c5)c4c3)cc2)CC1
Reported Measurement: 22

Compound: Cc1c(Nc2ccc(S(=O)(=O)N3CCN(C)CC3)cc2F)nc2ccc(-c3cnn(C4CC4)c3)cn2c1=O
Reported Measurement: 12

Compound: CCCCCNC(=N)N/N=C/c1c[nH]c2ccc(OC)cc12.O=C(O)/C=C\C(=O)O [TEGASEROD MALEATE]
Reported Measurement: 17

Compound: CCCCN(CC)c1nc(C)nc2c1c(C)cn2-c1c(C)cc(C)cc1C.Cl
Reported Measurement: 0

Compound: Cl.NC[C@@H]1O[C@H](C23CC4CC(CC(C4)C2)C3)Cc2c1ccc(O)c2O
Reported Measurement: 56

Compound: CC(Cc1ccc(O)c(O)c1)C(C)Cc1ccc(O)c(O)c1 (stereo not drawn) [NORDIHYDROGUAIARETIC ACID]
Reported Measurement: 5

Compound: CC(C)c1cc(Nc2nc(N3CCC[C@H](N)C3)ncc2C(N)=O)cc(C(C)C)n1
Reported Measurement: 13

Compound: Oc1cccc(-c2nc(N3CCOCC3)c3oc4ncccc4c3n2)c1
Reported Measurement: 8

Compound: Cc1ccc(S(=O)(=O)NC2c3ccccc3Oc3ccccc32)cc1
Reported Measurement: 6

Compound: CCCc1cc(C)[nH]c(=O)c1CNC(=O)c1cc(-c2ccc(N3CCN(C(C)C)CC3)nc2)cc2c1cnn2C(C)C
Reported Measurement: 2

Compound: N#CCNC(=O)c1ccc(-c2ccnc(Nc3ccc(N4CCOCC4)cc3)n2)cc1
Reported Measurement: 13

Compound: CC(/C=C1\SC(=S)N(CCCC(=O)Nc2ccc(C(=O)O)c(O)c2)C1=O)=C\c1ccccc1
Reported Measurement: 9

Compound: CS(=O)(=O)N1CCCC(NC(=O)[C@H](CCC2CCCCC2)NC(=O)c2ccc(CNC(=O)c3cnc4ccccn34)cc2)C1 (stereo partly drawn)
Reported Measurement: 1

Compound: N#Cc1cccc(C(=O)Nc2cc(-c3ccccc3)nn2-c2ccccc2)c1
Reported Measurement: 17

Compound: CN1C(=O)[C@@H](NC(=O)c2cc3ccccc3[nH]2)N=C(c2ccccc2)c2ccccc21 [DEVAZEPIDE]
Reported Measurement: 22

Compound: C=CC(=O)Nc1cc(-n2c(=O)ccc3cnc4ccc(-c5ccc(NS(C)(=O)=O)cc5)cc4c32)ccc1C
Reported Measurement: 8

Compound: CN(c1cc(C(F)(F)F)nc(OCCC(=O)O)n1)c1cccc2c1CCC2
Reported Measurement: 4

* * *

Test system: Fibroblast
Assay: Multiplex assay against human fibroblast
Type: toxicity, cell-based
Conditions: 12 h, 1 µM, compound concentration 1 uM, replicate 1
Value Type: Population Hoechst High Intensity Objects (%)

Compound: Cl.Cn1c2c(c3ccc(Cl)c(Cl)c31)C(C#N)C1(CCNCC1)NC2=O (stereo not drawn)
Reported Measurement: 11
//
Compound: COc1cc(Nc2ccnc3ccc(Br)cc23)cc(OC)c1OC
Reported Measurement: 11
//
Compound: Cl.NC[C@@H]1O[C@H](C23CC4CC(CC(C4)C2)C3)Cc2c1ccc(O)c2O
Reported Measurement: 12
//
Compound: Cc1ccc(NC(=O)Nc2cc(C(F)(F)F)ccc2F)cc1Nc1ccc2c(c1)NC(=O)/C2=C\c1ccc[nH]1
Reported Measurement: 10
//
Compound: CCCc1cc(C)[nH]c(=O)c1CNC(=O)c1cc(-c2ccc(N3CCN(C(C)C)CC3)nc2)cc2c1cnn2C(C)C
Reported Measurement: 22
//
Compound: CCOc1ccn(-c2ccc(F)cc2)c(=O)c1C(=O)Nc1ccc(Oc2ccnc(N)c2Cl)c(F)c1
Reported Measurement: 13
//
Compound: C[C@@H](Oc1cc(-n2cnc3ccc(CN4CCN(C)CC4)cc32)sc1C(N)=O)c1ccccc1C(F)(F)F
Reported Measurement: 14
//
Compound: NC(=O)c1ccc2nc(-c3ccc(C4(N)CCC4)cc3)c(-c3ccccc3)n2n1
Reported Measurement: 38
//
Compound: CC[C@@H]1C(=O)N(C)c2cnc(Nc3ccc(C(=O)NC4CCN(C)CC4)cc3OC)nc2N1C1CCCC1
Reported Measurement: 13
//
Compound: CC[C@H](Nc1ncnc2[nH]cnc12)c1nc2cccc(F)c2c(=O)n1-c1ccccc1
Reported Measurement: 11
//
Compound: Cc1c(Nc2ccc(S(=O)(=O)N3CCN(C)CC3)cc2F)nc2ccc(Nc3cnn(C4CC4)c3)cn2c1=O
Reported Measurement: 12
//
Compound: CCCCN(CC)c1nc(C)nc2c1c(C)cn2-c1c(C)cc(C)cc1C.Cl
Reported Measurement: 11
//
Compound: CCCCCNC(=N)N/N=C/c1c[nH]c2ccc(OC)cc12.O=C(O)/C=C\C(=O)O [TEGASEROD MALEATE]
Reported Measurement: 8
//
Compound: N#CCNC(=O)c1ccc(-c2ccnc(Nc3ccc(N4CCOCC4)cc3)n2)cc1
Reported Measurement: 11
//
Compound: CN1C(=O)[C@@H](NC(=O)c2cc3ccccc3[nH]2)N=C(c2ccccc2)c2ccccc21 [DEVAZEPIDE]
Reported Measurement: 13
//
Compound: N#Cc1cccc(C(=O)Nc2cc(-c3ccccc3)nn2-c2ccccc2)c1
Reported Measurement: 11
//
Compound: CC(C)[C@H](CO)Nc1nc(Nc2cccc(Cl)c2)c2ncn(C(C)C)c2n1
Reported Measurement: 17
//
Compound: CCOC(=O)CCNc1cc(N2CCc3ccccc3CC2)nc(-c2ccccn2)n1
Reported Measurement: 16

* * *

System: U2OS
Experiment: Multiplex assay against U2OS
Format: toxicity, cell-based
Conditions: human, 48 h, 1 µM, compound concentration 1 uM, replicate 2
Recorded Population Pyknosed Nuclei (%) values for a group of molecules are listed next.
Value Type: Population Pyknosed Nuclei (%)

Molecule: CC(C)[C@H](CO)Nc1nc(Nc2cccc(Cl)c2)c2ncn(C(C)C)c2n1 [PURVALANOLA]
Unit: %
Reported Measurement: 11
//
Molecule: CC(Cc1ccc(O)c(O)c1)C(C)Cc1ccc(O)c(O)c1 (stereo not drawn) [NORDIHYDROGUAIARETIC ACID]
Unit: %
Reported Measurement: 5
//
Molecule: Oc1cccc(-c2nc(N3CCOCC3)c3oc4ncccc4c3n2)c1 [PI-103]
Unit: %
Reported Measurement: 13
//
Molecule: N#CCNC(=O)c1ccc(-c2ccnc(Nc3ccc(N4CCOCC4)cc3)n2)cc1 [MOMELOTINIB]
Unit: %
Reported Measurement: 2
//
Molecule: Cc1ccc(S(=O)(=O)NC2c3ccccc3Oc3ccccc32)cc1
Unit: %
Reported Measurement: 4
//
Molecule: C[C@@H](Oc1cc(-n2cnc3ccc(CN4CCN(C)CC4)cc32)sc1C(N)=O)c1ccccc1C(F)(F)F [GSK-461364]
Unit: %
Reported Measurement: 20
//
Molecule: CCCCCNC(=N)N/N=C/c1c[nH]c2ccc(OC)cc12.O=C(O)/C=C\C(=O)O [TEGASEROD MALEATE]
Unit: %
Reported Measurement: 13
//
Molecule: N#Cc1cccc(C(=O)Nc2cc(-c3ccccc3)nn2-c2ccccc2)c1
Unit: %
Reported Measurement: 10

* * *

Recorded Growth Rate values for a group of compounds are listed next.
Test system: U2OS
Test: Incucyte cell viability with U2OS; further: filed as whole numbers so only -1 and 0 and 1 occur
Format: toxicity, cell-based
Conditions: human, 0 h, 10 µM, compound concentration 10 uM, replicate number 2, timepoint 0 hours
Value Type: Growth Rate

Compound: CCOP(=O)(OCC)C(=Cc1cc(C(C)(C)C)c(O)c(C(C)(C)C)c1)P(=O)(OCC)OCC
Value Type: Growth Rate
Reported Measurement: 0
//
Compound: CCCc1cc(C)[nH]c(=O)c1CNC(=O)c1cc(-c2ccc(N3CCN(C(C)C)CC3)nc2)cc2c1cnn2C(C)C
Value Type: Growth Rate
Reported Measurement: 0
//
Compound: NC(=O)c1ccc2nc(-c3ccc(C4(N)CCC4)cc3)c(-c3ccccc3)n2n1
Value Type: Growth Rate
Reported Measurement: 0
//
Compound: COc1cccc(-c2c(C)n(Cc3c(F)cccc3C(F)(F)F)c(=O)n(C[C@H](NCCCC(=O)[O-])c3ccccc3)c2=O)c1F.[Na+] [ELAGOLIX SODIUM]
Value Type: Growth Rate
Reported Measurement: 1

* * *

Tested on: U2OS
Assay: Multiplex assay against U2OS
Type: toxicity, cell-based
Conditions: human, 48 h, 1 µM, compound concentration 1 uM, replicate 1
Recorded Population Hoechst High Intensity Objects (%) values for a group of compounds are listed next.
Value Type: Population Hoechst High Intensity Objects (%)

Compound: CCCCCNC(=N)N/N=C/c1c[nH]c2ccc(OC)cc12.O=C(O)/C=C\C(=O)O [TEGASEROD MALEATE]
Target System: U2OS
Unit: %
Reported Measurement: 3
--
Compound: C=CC(=O)Nc1cc(-n2c(=O)ccc3cnc4ccc(-c5ccc(NS(C)(=O)=O)cc5)cc4c32)ccc1C
Target System: U2OS
Unit: %
Reported Measurement: 2
--
Compound: Cc1c(P(=S)(c2ccccc2)c2ccccc2)n2ccccc2[n+]1C/C=C/c1ccccc1.[Br-]
Target System: U2OS
Unit: %
Reported Measurement: 5
--
Compound: Cl.NC[C@@H]1O[C@H](C23CC4CC(CC(C4)C2)C3)Cc2c1ccc(O)c2O
Target System: U2OS
Unit: %
Reported Measurement: 6
--
Compound: N#Cc1cccc(C(=O)Nc2cc(-c3ccccc3)nn2-c2ccccc2)c1
Target System: U2OS
Unit: %
Reported Measurement: 5
--
Compound: CC(Cc1ccc(O)c(O)c1)C(C)Cc1ccc(O)c(O)c1 (stereo unspecified) [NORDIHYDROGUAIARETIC ACID]
Target System: U2OS
Unit: %
Reported Measurement: 2
--
Compound: CCCc1cc(C)[nH]c(=O)c1CNC(=O)c1cc(-c2ccc(N3CCN(C(C)C)CC3)nc2)cc2c1cnn2C(C)C
Target System: U2OS
Unit: %
Reported Measurement: 10
--
Compound: CC(/C=C1\SC(=S)N(CCCC(=O)Nc2ccc(C(=O)O)c(O)c2)C1=O)=C\c1ccccc1
Target System: U2OS
Unit: %
Reported Measurement: 1
--
Compound: CN1C(=O)[C@@H](NC(=O)c2cc3ccccc3[nH]2)N=C(c2ccccc2)c2ccccc21 [DEVAZEPIDE]
Target System: U2OS
Unit: %
Reported Measurement: 3
--
Compound: N#CCNC(=O)c1ccc(-c2ccnc(Nc3ccc(N4CCOCC4)cc3)n2)cc1
Target System: U2OS
Unit: %
Reported Measurement: 3
--
Compound: CCCCN(CC)c1nc(C)nc2c1c(C)cn2-c1c(C)cc(C)cc1C.Cl
Target System: U2OS
Unit: %
Reported Measurement: 3
--
Compound: CN(c1cc(C(F)(F)F)nc(OCCC(=O)O)n1)c1cccc2c1CCC2
Target System: U2OS
Unit: %
Reported Measurement: 5
--
Compound: CC(C)c1cc(Nc2nc(N3CCC[C@H](N)C3)ncc2C(N)=O)cc(C(C)C)n1
Target System: U2OS
Unit: %
Reported Measurement: 7
--
Compound: CC(C)[C@H](CO)Nc1nc(Nc2cccc(Cl)c2)c2ncn(C(C)C)c2n1
Target System: U2OS
Unit: %
Reported Measurement: 4
--
Compound: C[C@@H](Oc1cc(-n2cnc3ccc(CN4CCN(C)CC4)cc32)sc1C(N)=O)c1ccccc1C(F)(F)F
Target System: U2OS
Unit: %
Reported Measurement: 10
--
Compound: Oc1cccc(-c2nc(N3CCOCC3)c3oc4ncccc4c3n2)c1
Target System: U2OS
Unit: %
Reported Measurement: 7
